Assay: CCTE_Shafer_MEA_acute_per_burst_spike_number_mean: CCTE's Neural Acute Assay for Average Number of Spikes Per Burst, Shafer Lab (AID 2284015);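 further: hits are decreases in mean spikes per burst versus baseline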
Protocol: CCTE_Shafer_MEA_acute assay is conducted using Axion Biosystems 48 well microelectrode array (MEA) plates and Maestro recording system. Each well of the MEA plate contains a grid of 16 microelectrodes embedded in the culture surface. Electrically active cells, such as neurons, can be cultured over the electrodes, and electrical activity in these cells can be recorded extracellularly. […]
The source made the active and inactive calls. How the source made its calls: active means hit-call score of the fitted dose curve at least 0.9, where 1 is the maximum; inactive means score below 0.9.
Labels: active, inactive

{"compound": "O=[N+]([O-])c1cc(S(=O)(=O)Nc2ccccc2)ccc1Nc1ccccc1", "assigned_label": "inactive"}
{"compound": "CN(C)C(=O)C(CCN1CCC(O)(c2ccc(Cl)cc2)CC1)(c1ccccc1)c1ccccc1", "assigned_label": "active"}
{"compound": "COc1ccccc1Oc1c(NS(=O)(=O)c2ccc(C(C)(C)C)cc2)nc(-c2ncccn2)nc1OCCO", "assigned_label": "inactive"}
{"compound": "CN(C)CCC(c1ccc(Cl)cc1)c1ccccn1 (stereo unspecified)", "assigned_label": "active"}
{"compound": "CNCCC(Oc1ccc(C(F)(F)F)cc1)c1ccccc1 (stereo unspecified)", "assigned_label": "inactive"}
{"compound": "CCC[Si](OC(C)=O)(OC(C)=O)OC(C)=O", "assigned_label": "inactive"}
